- Tested on: K4 kissing-loop RNA reporter
- assay-comment: apparent KD of K4 kissing-loop reporter; higher = weaker reporter binding
- details: Eterna round: R107; input ligand: FMN 200 uM
Decision: apparent KD of K4 kissing-loop reporter compared against 0.6 µM; not below it gives MET, below it gives NOT MET.

| query-sequence | category |
| --- | --- |
| CCGGCCCGGCCGGAUACCAGUGCGCCGCUGGGAACCGCGGGCCCAGAGUGAUGUUCGGGACACCCUUGGCAGCCGCCUGGGUCGC [#2 Same State - Theophylline B Attempt #24 (HarryS)] | NOT MET |
| AUUUAGACGAGUGAUGUUCGUGUUUUUUCAGAGGAUAUGCGUAAUUGCAGAAGGCUGUAUUUAUAUAUGUUUUGUUUUUUUAAAA [JR_ExcFMNA_Sub008] | NOT MET |
| AGGUUUUGAUUAGGAUAUGCACUGACGACGAGAAUAUAGUGAUGUUAUAUACUACGAAUUAGUAGAGUAGAAGGGAUUGAGGUUU [SSFMNB.Y] | NOT MET |
| UGUCAUUGGUCUGAUACCAGGUUGAUCGGUAAACGAUCUCCUGGAGUGAUGUUCCAAAAUAUCCCUUGGCAGCAGACCGAUGACU [TheoBS 6 #SwitchBubble #StaticStem] | NOT MET |
| CCGGCCCAGCCGGAUACCAGUGCGCCGCAGGGAACGGCGGGCCCAGAGUGAUGUUCGGGACACCCUUGGCAGCCGCCUGGGUCCC [#2 Same State - Theophylline B Attempt #30 (HarryS)] | MET |

---

- Tested on: MS2 coat protein
- assay-comment: apparent KD of MS2 coat protein, switch OFF state (with FMN for OFF switches, without FMN for ON switches); designed switch direction (-1 OFF switch, 1 ON switch): -1; higher = weaker reporter binding
- details: FMN input: 0 or 200 uM; Eterna round: R93 (includes R88 designs)
In this section, each of the sequences is paired with its reported apparent KD of MS2 coat protein.
quantity-name: apparent KD of MS2 coat protein (nM)

| query-sequence | observed-value |
| --- | --- |
| AAAAAACAUGAGGAUCACCCAUGUGAGGAUAUGGAAAAAUAAGGACAGUAAAGAUAAACCAGAAGGCACAAAUA [JR_Exc001_Sub1101] | 24.1 |
| GAAAAACAUGAGGAUCACCCAUGUAAGGAUAUGCUGAAAAACACGGAAAAAACGUGCAGCAGAAGGUACAAAAA [Mat - Exclusion 1 - Eli mod - D92] | 28.1 |
| AAGAACCAAGGAUAUACAUGAGGAUCACCCAUGUAAAAGAAAGAAGGGAAAGAGAAAAGUAGAAGGUGGAAGAA [Djedkaure Shebitku] | 22.7 |

---

Recorded apparent KD of K4 kissing-loop reporter for the following sequences
- System: K4 kissing-loop RNA reporter
- assay-comment: apparent KD of K4 kissing-loop reporter; higher = weaker reporter binding
- details: Eterna round: R107; input ligand: tryptophan 2.4 mM

| query-sequence | apparent KD of K4 kissing-loop reporter (nM) |
| --- | --- |
| CCGUGGAGUGAUGUUCCACGUACUACGGAUACCAGCUUUGCCAAAGGCCCUUGGCAGCCGCACGUUGCAGUGAUGUUGUGGCGCG [Same State Theophylline A G9] | 299 |
| AAAAGAAAGUCGGCCGCCACUCAACGCAGUGAUGUUGCAAGACAGAAGACCAGUGAUGUUGGCCAGAGGACCGGGACAAAAGGCC [Same State Typtophan B GF 4] | 464 |
| AAAAUAAACCAGUGAUGUUGGUGUCCAGAUACCAGCGAUAAAAUUCGCCCUUGGCAGCUGUGGACGUACAAAAUAAGUACGUCCU [MatMod 3 - Jieux - Same State - Theophylline A] | 674 |
| GAUCAUAGCACGGCCGCCACUGAUAUGCCGUGCUAUACGAGUGAUGUUCGUAAUUAUACGGGUAUCAGGACCGGGUGCAACGGUA [Tryp B SS t2] | 112 |
| ACACGUGUGGCAGGAUAUCGGGCUGUGGAUCGGCUGGUUGCUUAUUCUCGACCAGUGAUGUUGGUACGAGAAGGGCUACCCAGAA [Diorce] | 123 |
| CCAAUCUGUUACGAUACCAGUCAAAGAUAUUUUAUCAAUGCCCUCACCGAGUGAUGUUCGGACCCUUGGCAGCGUCUGGGAUAGG [ddfcmullin] | 149 |
| UGAUCUCGGCAGUGAUGUUGCAUAUGAGAAGGAGCGCACGAAAGUGCAGGUAGGUCGCUCAGCCAAAGAAAAUAAAACGAGAUCU [#SwitchBubble #K4Early] | 82 |
| GCUAGCAAUGCAGGAUAUUAAAACGAGUGAUGUUCGGUACCGAGGAUGGGAAACCAUCCUCGGUAAUAAGAAGGGCAUUGCUAGC | 172 |
| GCCGUACGCAUGGAUACCAGUUGCGAAGUGAUGUUUCGGGCGAUCAAAGGAUCGCCCAACAACCCUUGGCAGCCAUGCGUACGGC | 133 |
| CGCUUGCACGGAAGGAGCGUCCAAGCGAGACACGAGUGAUGUUCGUGAUCGACGUAAACUGGACAGGUAGGUCGCCGUGCUUAAU [Eresti] | 100 |
| AAGCAUUCUUCGGAAUGCAGACCCGCUGAGGAGGAUAUGACGAAAGUCAGAAGGUUUCAGUGAUGUUGAGGCCUCCUCAAUGGUC [whbob_Ex_FMNA__2th182] | 291 |
| GCCAGCAGUACUGAUACCAGACUGCAUGUAGUGAUGUUGCAUAAGGGCAUAGAUGUCUCAGUCCCUUGGCAGCGGUACUGUUGCA [#10 K4 Theophylline B Same State] | 241 |

---

- System: K4 kissing-loop RNA reporter
- assay-comment: apparent KD of K4 kissing-loop reporter; higher = weaker reporter binding
- details: Eterna round: R107; input ligand: FMN 200 uM
quantity-name: apparent KD of K4 kissing-loop reporter (nM)

| query-sequence | tested-target | quantity-name | observed-value |
| --- | --- | --- | --- |
| AUGUAUGAAUUAGGAUAUCGUUAGCCUAUCAUAUAUAUGAUAAAUGGAUAUGUCGUAGUGAUGUUACGAGAAGGAGUGUGGAGUA [KL-XFMN-B7] | K4 kissing-loop RNA reporter | apparent KD of K4 kissing-loop reporter | 55.8 |
| CGGAGUCGCGGAAGGAGCGCUCGAUAGACAAGUUGAUCGUGCCGUGGUCGAGUGAUGUUCGAGCAGGUAGGUCGCCGUCGGUCCC [Cexeatedma] | K4 kissing-loop RNA reporter | apparent KD of K4 kissing-loop reporter | 252 |
| CCUUUCUGUUACGAUACCAGUCUAAUAUAUUUGAUCAAUACCCUCGCCGAGUGAUGUUCGGACCCUUGGCAGCGUCUGGGACAGG [aazwmullin] | K4 kissing-loop RNA reporter | apparent KD of K4 kissing-loop reporter | 482 |

---

- Test system: K4 kissing-loop RNA reporter;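 note: bound reporter read as fluorescence of individual clusters on recovered sequencing chips by microscopy, with normalized cluster intensities fitted with a binding model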
- assay-comment: apparent KD of K4 kissing-loop reporter; higher = weaker reporter binding
- details: Eterna round: R107; input ligand: theophylline 20 uM
Reported values of apparent KD of K4 kissing-loop reporter for individual entries
quantity-name: apparent KD of K4 kissing-loop reporter

| query-sequence | observed-value |
| --- | --- |
| AGACUACCACACUGUCAAUAGACAGUGGACUAGGAUAUGCUGAUAAGCAGAAGGAGUGAUGUUCCUCGGUAGUCAAUAAAAUAAU [FmnAX 13 G28+C67] | 489 nM |
| GGCAGUGAUGUUGCCAGUGGCAGAUGCGAAGGAGCGUGGUGAGACACAGGUAGGUCGCGCAUUGAAAUUGCUGUCACUAAAAUGC [#3] | 369 nM |
| GCUAUGGUAGGAAGGAGCGCUUGCUCGGUCAUAUGAGUGAUGUUCGAGACCGAGCAUUUAUAGCAGGUAGGUCGCCUACUAUAGC [Arginine B K4 8] | 200 nM |
| AGCGUCUGAAGAGGAUAUGACCAGUGAUGUUGGUUACUACCUCAAAUUAGUGUCUCGUCAAAAUCGUCAGAAGGCUUCGACGAGC [#09 K4 FMN B Exclusion] | 92.8 nM |
| AGGCACGAGCAAGGAUAUUGAGUAGAGUGAUGUUCUGCCUGGGUUGGCUCGAAAGAGCCUUCUCAGCGAGAAGGUGCUCGUGCCU [#2 Same State - FMN A Attempt #22 (HarryS)] | 367 nM |
| UAUGCUUGUGCUGAUACCAGUGUUAGUGAUGUUAGGACUGUCAGUAGGAUGCGUGCAUUUCACCCUUGGCAGCAGUAUCGCAGCA [theeternabot_exclusion_KL_Theo_B_48] | 426 nM |
| CUUGAUCGAGGAAGGAGCGGGCCGUCAUUGAGCGCAGUGAUGUUGCGUUCGACUAGUCGAGCCCAGGUAGGUCGCCUGGAGUAAG [Lazalaa] | 78.2 nM |
| AGAACUGUCUGAGAUACCAGCCAGGAAGUGAUGUUUCCAGCUCCACGAAAGUGGAGCCAUGGCCCUUGGCAGCUCAGACAGUUCA [Omei KL Theo B SS A v5] | 105 nM |
| CCGAAGAACCAGUGAUGUUGGUUGACUAGACAGGAUAUGAGCAACAUCAGAAGGGUCUGGCUUCGGGAGUGGGUUGCGCUGACCU [Onbizaes] | 296 nM |
| UUAAUUAAGACGGCCGCCACUGAAUUAGAGUGAUGUUCUAAAAUUACUAAAUUAAAUUUAUUCAACAGGACCGGGUCAAUUAUUA [JR_SSTryptoB_Sub009] | 527 nM |
| AAGUCAUAGGCAGGAUAUGCUUAGUAUUAAGGCCAUAUAUACGUAUAGAGUGAUGUUUUGUACCAGGCAGAAGGGCUACAUCAGU [FMN B Excl V6 (+A)] | 634 nM |
| GUUGUAUACUGAAGGAGCGAGUAGUGGAAACAUAAACUCAUUGCGAGUGAUGUUCGCAGUACUCAGGUAGGUCGCAGUAAUCGUA [Exclusion Arginine B Gf 10] | 453 nM |
